B1: ZER1 (parent)
chain: PILRLLPQGISPVSQHWATWALYN

# Variants of: B1
# assay.remarks: protein stability index of a GFP-peptide fusion (GPS, HEK-293T) (PSI 1-6); higher = more stable;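 further: lentivirally expressed fusions sorted by FACS into six bins by GFP to DsRed ratio, PSI derived from sequencing read proportions per bin multiplied by bin number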
# reported.conditions: c terminus: a fixed tail appended
quantity.measured: protein stability index

> print(dat)
    var        quantity.measured  value.reported
1   L5Q  protein stability index            1.95
2  L22D  protein stability index            2.02
3  T19G  protein stability index            1.97
4   L5N  protein stability index            1.99
